The measurements presented in this section are drawn from patent US12310944B2.

tested.on: eqBuChE (BuChE, E.C.3.1.1.8, selected from horse serum) (Equus caballus, UniProt P81908)
Construct: BuChE (E.C.3.1.1.8, selected from horse serum); purchased Sigma; host or cells: horse serum
Sequence (P81908 whole entry): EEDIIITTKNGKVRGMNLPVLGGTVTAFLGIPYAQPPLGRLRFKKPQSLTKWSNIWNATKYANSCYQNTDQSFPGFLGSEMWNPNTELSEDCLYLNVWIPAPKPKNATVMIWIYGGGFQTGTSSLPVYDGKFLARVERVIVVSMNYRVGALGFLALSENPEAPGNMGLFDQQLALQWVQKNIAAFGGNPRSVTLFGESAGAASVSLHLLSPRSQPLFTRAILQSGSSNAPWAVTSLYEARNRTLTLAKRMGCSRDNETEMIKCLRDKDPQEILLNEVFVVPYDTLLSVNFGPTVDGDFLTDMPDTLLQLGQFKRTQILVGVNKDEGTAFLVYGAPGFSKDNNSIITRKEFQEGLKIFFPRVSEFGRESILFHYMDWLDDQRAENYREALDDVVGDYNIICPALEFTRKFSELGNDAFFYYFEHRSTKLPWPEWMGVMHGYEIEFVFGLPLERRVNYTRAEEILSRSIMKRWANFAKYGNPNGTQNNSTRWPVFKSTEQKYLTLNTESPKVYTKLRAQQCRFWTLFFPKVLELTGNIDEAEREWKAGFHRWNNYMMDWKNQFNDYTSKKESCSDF
test.method.notes: Cholinesterase inhibitory activity (DTNB/BTC), eqBuChE
Assay type: biochemical
measurement.parameters: eqBuChE; mean ± SEM, three parallel tests
Description: Determination of Cholinesterase Inhibitory Activity: […] Instrument: THERMO Varioskan Flash full-wavelength multifunctional microplate reader. […] Before the start of the experiment, all the solutions as used were warmed to room temperature, and the AChE and BuChE solutions were diluted 1-fold with water to prepare an enzyme solution with a concentration of 2.5 units/mL. The background UV absorbance was measured with a blank buffer (3 mL) as a subtraction value. […]
Let's look at some molecules and their measured IC50.
Your answer is read as nM, so omit the unit and give the number.

Some entries whose results are on file:
Consider the molecule CCN(CC)Cc1ccccc1CNC(=O)c1cccc(NC(=O)c2cccs2)c1 [Compound 1] and give its measured IC50.
0.13

Consider the molecule CN(C)Cc1ccccc1NC(=O)c1cccc(NC(=O)c2cccs2)c1 [Compound 2] and give its measured IC50.
1910

Consider the molecule CCCN(CCC)Cc1ccccc1CNC(=O)c1cccc(NC(=O)c2cccs2)c1 [Compound 35] and give its measured IC50.
0.45

Consider the molecule CCN(CC)Cc1ccccc1CNC(=O)c1cccc(NC(=O)c2ccc(C(C)=O)cc2)c1 [Compound 30] and give its measured IC50.
6.63

Consider the molecule CN(C)Cc1ccccc1CNC(=O)c1cccc(NC(=O)c2cccs2)c1 [Compound 34] and give its measured IC50.
0.29

More entries:
Consider the molecule CCN(CC)Cc1ccccc1CNC(=O)c1cccc(NC(=O)c2cccc(F)c2)c1 [Compound 17] and give its measured IC50.
4.55

Consider the molecule CCN(CC)Cc1ccccc1CNC(=O)c1cccc(NC(=O)c2ccco2)c1 [Compound 6] and give its measured IC50.
0.79

Consider the molecule CCN(CC)Cc1ccccc1CNC(=O)c1cccc(NC(=O)c2ccc(F)cc2)c1 [Compound 15] and give its measured IC50.
0.15

Consider the molecule CCN(CC)Cc1ccccc1CNC(=O)c1cccc(NC(=O)c2ccc(OC)cc2)c1 [Compound 26] and give its measured IC50.
0.55

Consider the molecule CCN(CC)Cc1ccccc1NC(=O)c1cccc(NC(=O)c2cccs2)c1 [Compound 3] and give its measured IC50.
481

---

System: PC-12 neural cell line
test.method.notes: Toxicity test in PC-12 nerve cell (MTT)
Format: cell-based
measurement.parameters: PC-12 cells, 50 μM compound for 24 h
parameter: SR(%) cell survival rate, 50 μM
Your answer is read as %, so omit the unit and give the number.

Some entries whose results are on file:
Consider the compound CCN(CC)Cc1ccccc1CNC(=O)c1cccc(NC(=O)c2ccc(C(=O)O)cc2)c1 and give its measured SR(%) cell survival rate, 50 μM.
75.25

Consider the compound CCN(CC)Cc1ccccc1CNC(=O)c1cccc(NC(=O)c2cccc(OC)c2)c1 and give its measured SR(%) cell survival rate, 50 μM.
83.60

Consider the compound CCN(CC)Cc1ccccc1CNC(=O)c1cccc(NC(=O)c2ccc(C(C)C)cc2)c1 and give its measured SR(%) cell survival rate, 50 μM.
86.21

Consider the compound CCN(CC)Cc1ccccc1CNC(=O)c1cccc(NC(=O)c2ncc[nH]2)c1 and give its measured SR(%) cell survival rate, 50 μM.
70.74

Consider the compound CN(C)Cc1ccccc1NC(=O)c1cccc(NC(=O)c2cccs2)c1 and give its measured SR(%) cell survival rate, 50 μM.
91.45

Consider the compound CCN(CC)Cc1ccccc1CNC(=O)c1cccc(NC(=O)c2ccc(C(=O)OC)cc2)c1 and give its measured SR(%) cell survival rate, 50 μM.
93.32

More entries:
Consider the compound CCN(CC)Cc1ccccc1CNC(=O)c1cccc(NC(=O)c2ccc(F)cc2)c1 and give its measured SR(%) cell survival rate, 50 μM.
84.35

Consider the compound O=C(NCc1ccccc1)c1cccc(NC(=O)c2cccs2)c1 and give its measured SR(%) cell survival rate, 50 μM.
77.42

Consider the compound CCN(CC)Cc1ccccc1CNC(=O)c1cccc(NC(=O)c2ccc[nH]2)c1 and give its measured SR(%) cell survival rate, 50 μM.
92.47

---

Let's look at some compounds and their measured IC50.
tested.on: hBuChE (Homo sapiens)
test.method.notes: Cholinesterase inhibitory activity (DTNB/BTC), hBuChE
Type: biochemical
measurement.parameters: mean ± SEM
Your answer is read as nM, so omit the unit and give the number.

Some entries whose results are on file:
Param readout= IC50; system= hBuChE (Homo sapiens); entry= CCN(CC)Cc1ccccc1CNC(=O)c1cccc(NC(=O)c2nccs2)c1 [Compound 8] ; returns value.
1.88

Param readout= IC50; system= hBuChE (Homo sapiens); entry= CCN(CC)Cc1cccc(CNC(=O)c2cccc(NC(=O)c3cccs3)c2)c1 [Compound 37] ; returns value.
32.9

More entries:
Param readout= IC50; system= hBuChE (Homo sapiens); entry= CCN(CC)Cc1ccccc1CNC(=O)c1cccc(NC(=O)c2ccc([N+](=O)[O-])cc2)c1 [Compound 32] ; returns value.
30.9

---

tested.on: hBuChE (Homo sapiens)
test.method.notes: Cholinesterase inhibitory activity (DTNB/BTC), hBuChE
Format: biochemical
measurement.parameters: mean ± SEM
parameter: IC50 (nM)
Your answer is read as nM, so omit the unit and give the number.

Some entries whose results are on file:
Consider the compound CCN(CC)Cc1ccccc1CNC(=O)c1cccc(NC(=O)c2cccc(OC)c2)c1 and give its measured IC50.
12.8

Consider the compound CCN(CC)Cc1ccccc1CNC(=O)c1cccc(NC(=O)c2ccc(I)cc2)c1 and give its measured IC50.
3.33

Consider the compound CCN(CC)Cc1ccccc1CNC(=O)c1cccc(NC(=O)c2ccccn2)c1 and give its measured IC50.
0.78

Consider the compound CCN(CC)Cc1ccccc1CNC(=O)c1cccc(NC(=O)c2ccc(C(C)=O)cc2)c1 and give its measured IC50.
24

Consider the compound CCN(CC)Cc1ccccc1CNC(=O)c1cccc(NC(=O)c2ccc(N)cc2)c1 and give its measured IC50.
7.99

More entries:
Consider the compound CCN(CC)Cc1ccccc1CNC(=O)c1cccc(NC(=O)c2cccs2)c1 and give its measured IC50.
0.42

Consider the compound CCN(CC)Cc1ccccc1CNC(=O)c1cccc(NC(=O)c2ccccc2)c1 and give its measured IC50.
0.99

Consider the compound CCN(CC)Cc1ccccc1CNC(=O)c1cccc(NC(=O)c2ccc(O)cc2)c1 and give its measured IC50.
2.45

Consider the compound CCN(CC)Cc1ccccc1CNC(=O)c1cccc(NC(=O)c2ccc(Cl)cc2)c1 and give its measured IC50.
0.83

Consider the compound CN(C)Cc1ccccc1CNC(=O)c1cccc(NC(=O)c2cccs2)c1 and give its measured IC50.
0.75

Consider the compound CCN(CC)Cc1ccc(CNC(=O)c2cccc(NC(=O)c3cccs3)c2)cc1 and give its measured IC50.
75

Consider the compound CCN(CC)Cc1ccccc1CNC(=O)c1cccc(NC(=O)c2ccc(C(=O)OC)cc2)c1 and give its measured IC50.
9.06

Consider the compound CCN(CC)Cc1ccccc1CNC(=O)c1cccc(NC(=O)c2ccco2)c1 and give its measured IC50.
0.63

---

System: PC-12 neural cell line
test.method.notes: Toxicity test in PC-12 nerve cell (MTT)
Assay type: cell-based
measurement.parameters: PC-12 cells, 20 μM compound for 24 h
Let's look at some compounds and their measured SR(%) cell survival rate, 20 μM.
Your answer is read as %, so omit the unit and give the number.

Some entries whose results are on file:
Consider the compound CCN(CC)Cc1ccccc1CNC(=O)c1cccc(NC(=O)c2ccc(Br)cc2)c1 and give its measured SR(%) cell survival rate, 20 μM.
94.00

Consider the compound CCN(CC)Cc1ccccc1CNC(=O)c1cccc(NC(=O)c2ccc(C=O)cc2)c1 and give its measured SR(%) cell survival rate, 20 μM.
86.34

More entries:
Consider the compound CCN(CC)Cc1ccccc1CNC(=O)c1cccc(NC(=O)c2ccc(N)cc2)c1 and give its measured SR(%) cell survival rate, 20 μM.
90.21

Consider the compound CCN(CC)Cc1ccccc1CNC(=O)c1cccc(NC(=O)c2ccc(C(C)C)cc2)c1 and give its measured SR(%) cell survival rate, 20 μM.
97.02

Consider the compound CCN(CC)Cc1ccccc1CNC(=O)c1cccc(NC(=O)c2cccc(OC)c2)c1 and give its measured SR(%) cell survival rate, 20 μM.
91.23

Consider the compound CCN(CC)Cc1ccccc1NC(=O)c1cccc(NC(=O)c2cccs2)c1 and give its measured SR(%) cell survival rate, 20 μM.
95.23

Consider the compound CCN(CC)Cc1ccccc1CNC(=O)c1cccc(NC(=O)c2ccc(I)cc2)c1 and give its measured SR(%) cell survival rate, 20 μM.
94.40

Consider the compound CCN(CC)Cc1ccccc1CNC(=O)c1cccc(NC(=O)c2ccccc2)c1 and give its measured SR(%) cell survival rate, 20 μM.
96.30

---

Tested on: PC-12 neural cell line
test.method.notes: Toxicity test in PC-12 nerve cell (MTT)
Assay type: cell-based
measurement.parameters: PC-12 cells, 20 μM compound for 24 h
Label t when SR(%) cell survival rate, 20 μM is at or above 90%; anything below gets f.

# count of solved cases: 10
Check the entry CCN(CC)Cc1ccccc1CNC(=O)c1cccc(NC(=O)c2nccs2)c1 [Compound 8] : does SR(%) cell survival rate, 20 μM equal or exceed 90%?
t

Check the entry CN(C)Cc1ccccc1CNC(=O)c1cccc(NC(=O)c2cccs2)c1 [Compound 34] : does SR(%) cell survival rate, 20 μM equal or exceed 90%?
t

Check the entry CCCN(CCC)Cc1ccccc1NC(=O)c1cccc(NC(=O)c2cccs2)c1 [Compound 4] : does SR(%) cell survival rate, 20 μM equal or exceed 90%?
f

Check the entry CCN(CC)Cc1ccccc1CNC(=O)c1cccc(NC(=O)c2ncc[nH]2)c1 [Compound 9] : does SR(%) cell survival rate, 20 μM equal or exceed 90%?
f

Check the entry CCN(CC)Cc1ccccc1CNC(=O)c1cccc(NC(=O)c2ccccc2OC)c1 [Compound 28] : does SR(%) cell survival rate, 20 μM equal or exceed 90%?
t

Check the entry CCN(CC)Cc1ccccc1CNC(=O)c1cccc(NC(=O)c2cccc(F)c2)c1 [Compound 17] : does SR(%) cell survival rate, 20 μM equal or exceed 90%?
t

Check the entry CCN(CC)Cc1ccccc1CNC(=O)c1cccc(NC(=O)c2ccc[nH]2)c1 [Compound 5] : does SR(%) cell survival rate, 20 μM equal or exceed 90%?
t

Check the entry CN(C)Cc1ccccc1NC(=O)c1cccc(NC(=O)c2cccs2)c1 [Compound 2] : does SR(%) cell survival rate, 20 μM equal or exceed 90%?
t

Check the entry CCN(CC)Cc1ccccc1CNC(=O)c1cccc(NC(=O)c2ccco2)c1 [Compound 6] : does SR(%) cell survival rate, 20 μM equal or exceed 90%?
t

Check the entry CCN(CC)Cc1ccccc1CNC(=O)c1cccc(NC(=O)c2ccc(C(=O)OC)cc2)c1 [Compound 29] : does SR(%) cell survival rate, 20 μM equal or exceed 90%?
t

More entries:
Check the entry CCN(CC)Cc1ccccc1CNC(=O)c1cccc(NC(=O)c2ccc(C#N)cc2)c1 [Compound 31] : does SR(%) cell survival rate, 20 μM equal or exceed 90%?
t
